# tested-on: S100A4 (metastasin), wild type (UniProt P26447 1-101)
# Sequence (P26447 whole entry, one chain of several): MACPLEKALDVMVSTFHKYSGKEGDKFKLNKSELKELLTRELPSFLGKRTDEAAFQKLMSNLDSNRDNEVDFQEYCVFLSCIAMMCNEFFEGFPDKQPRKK
# protocol: fluorescence polarisation; competitive FP; 50 nM Fl-NMIIA complexed with 4 μM S100A4 dimer titrated with ezrin constructs; competition binding equation; triplicates
# condition-notes: both partners purified
metric-name: Kd

binder	observed
Ezrin C-ERMAD (Cys-Lys516-Leu586), unlabeled (domain or fragment, human, cysteine cloned before Lys516 for fluorescent labeling; human ezrin C-ERMAD, Lys516-Leu586; also called unlabeled C-ERMAD; not shown: GST, N-terminal, cleaved) CKRITEAEKNERVQRQLLTLSSELSQARDENKRTHNDIIHNENMRQGRDKYKTLRQIRQGNTKQRIDEFEAL	5.3 µM
